Biological target: T1, rat GLP-1 receptor (rat, UniProt P32301 22-463)
T1 sequence (looked up): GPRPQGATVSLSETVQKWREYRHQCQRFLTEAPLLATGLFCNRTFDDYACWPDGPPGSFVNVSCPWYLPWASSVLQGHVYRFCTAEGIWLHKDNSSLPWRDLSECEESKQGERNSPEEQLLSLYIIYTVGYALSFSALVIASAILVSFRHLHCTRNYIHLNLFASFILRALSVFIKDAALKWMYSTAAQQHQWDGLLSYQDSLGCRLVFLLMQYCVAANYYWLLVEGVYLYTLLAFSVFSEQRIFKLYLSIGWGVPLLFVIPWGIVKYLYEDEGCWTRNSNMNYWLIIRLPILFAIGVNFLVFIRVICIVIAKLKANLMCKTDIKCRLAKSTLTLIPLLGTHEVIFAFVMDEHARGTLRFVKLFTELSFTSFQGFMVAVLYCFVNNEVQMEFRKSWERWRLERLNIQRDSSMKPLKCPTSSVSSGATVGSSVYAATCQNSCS
Experiment: cell-based or functional assay
Ends that are not written are not given here.
Would you kindly list cAMP EC50 for each of these binders?
Dear colleague, please return just the value in pM, with no unit written.

The binder listed as IP379 (Fc fusion) YSEGTHTSDFSKLLEEEAVRLFIEWLLAGGGGGGSGGGGSGGGGSGGGGSATHTCPPC shows cAMP EC50 equal to 1500

The binder listed as IP236 (Fc fusion, cysteine pairing not given here; also: fused to IgG1-TM Fc) YSEGTFTSDYSKLLEEEAVRLFIEWLVKGPGGGGGSGGGGSGGGGSATHTCPPCPAPEF shows cAMP EC50 equal to 24

The binder listed as IP326 (Fc fusion) YSEGTFTSDYSKLLEEEAVRLFIEWLLAGGGGGGGSGGGGSGGGGSGGGGSGGGGSA shows cAMP EC50 equal to 39
